Cited source for all entries: patent US8906967B2

test system: Clostridium perfringens ATCC 13124; format: cell-based; details: 2 ppm sesquiterpene, 37° C., culture broth
Assay metric: growth of Clostridium perfringens

Examples from the recorded data:
• CC(=O)OCC=C(C)CCC=C(C)CCC=C(C)C [farnesyl acetate] = −
• CC1=CC[C@@]23C[C@@H]1C(C)(C)[C@@H]2CC[C@H]3C = −
• C[C@@H]1CC[C@H]2C(C)(C)[C@H]3C[C@@]12CC[C@@]3(C)O = +
• C=C1CC/C=C(\C)CC[C@@H]2[C@@H]1CC2(C)C = −
• C=C1CC[C@@]23C[C@@H]1C(C)(C)[C@@H]2CC[C@H]3C = −

In: Query (molecule): CC1=C2CC[C@@H](C)[C@H]2[C@H]2[C@@H](CC1)C2(C)C [(+) ledene] ; field requested: growth of Clostridium perfringens
Out: −

In: Same question for CC(C)=CCC/C(C)=C/CC/C(C)=C/CO [trans-trans farnesol] please.
Out: +

In: Same question for CC(=O)CCC=C(C)CCC=C(C)CCC=C(C)C please.
Out: −

In: Same question for CC(C)=CCCC(C)=CCCC(C)=CC=O please.
Out: +

In: Same question for CC(=O)O[C@]1(C)CC[C@@]23C[C@@H]1C(C)(C)[C@@H]2CC[C@H]3C [cedryl acetate] please.
Out: −

In: Same question for C/C1=C\CC/C(C)=C/CC(C)(C)/C=C/C1 please.
Out: −

In: Same question for C=CC(C)(O)CCC=C(C)CCC=C(C)C (stereo not drawn) please.
Out: +

In: Same question for C=C1CC[C@@H]2[C@H]([C@@H]3[C@H](C)CC[C@H]13)C2(C)C please.
Out: −

In: Same question for C[C@@H]1CC[C@@H]2[C@@H]1[C@H]1[C@@H](CC[C@]2(C)O)C1(C)C [(−) epiglobulol] please.
Out: +

In: Same question for C=C1[C@H]2CC[C@@H]3[C@H]2C(C)(C)CCC[C@]13C please.
Out: −
